FYI, the data here is from patent US11633415B2.

target_under_test: CSNK1A1 (Homo sapiens (Human))
Sequence (P48729 whole entry): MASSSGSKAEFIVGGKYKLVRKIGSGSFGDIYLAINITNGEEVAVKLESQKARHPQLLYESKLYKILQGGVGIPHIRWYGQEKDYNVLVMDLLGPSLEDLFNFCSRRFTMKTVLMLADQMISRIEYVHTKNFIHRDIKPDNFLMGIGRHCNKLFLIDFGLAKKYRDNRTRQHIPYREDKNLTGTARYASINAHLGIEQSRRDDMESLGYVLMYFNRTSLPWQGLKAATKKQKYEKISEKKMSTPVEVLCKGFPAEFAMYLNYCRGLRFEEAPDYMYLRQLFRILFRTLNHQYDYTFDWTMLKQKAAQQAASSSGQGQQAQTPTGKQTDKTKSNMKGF
measurement_protocol: Kinase enzymatic IC50 (Carna Biosciences mobility shift assay)
Assay type: biochemical
run_conditions: Table 1, CSNK1A1 inhibitors; read-out: IC50
Please go through the items and note down their IC50.
Could you give me the number in µM? Just the number is fine.

*Q* Tell me the measured IC50 of CNC1CCN(c2nc3ccccc3nc2C(C#N)C(=O)OCc2ccccc2)CC1 (stereo not drawn) , please.
*A* 4.39

*Q* # get_value(readout='IC50', item= CCC(CC)COC(=O)C(C#N)c1nc2ccccc2nc1N1CCC(N)CC1 (stereo not drawn) )
*A* 3.32

*Q* State the recorded IC50 for this entry: CN1CCN(c2nc3ccccc3nc2C(C#N)C(=O)OCc2ccc(F)cc2)CC1 (stereo not drawn)
*A* 2.89

*Q* Could you tell me which IC50 is on file for N#CC(C(=O)OCc1ccccc1F)c1nc2ccccc2nc1N1CCNCC1 (stereo not drawn) ?
*A* 1.88

*Q* Query: IC50; subject: CCC(CC)COC(=O)C(C#N)c1nc2ccccc2nc1N1CCC(CN)CC1 (stereo not drawn)
*A* 1.75

*Q* Item N#CC(C(=O)OCc1ccccc1)c1nc2ccccc2nc1N1CCC(N)CC1 (stereo not drawn) has what recorded IC50?
*A* 1.89

---

For each entry below, report its AC50 value.
target_under_test: GST-tagged full-length human CK1α (Homo sapiens (Human), UniProt P48729)
measurement_protocol: Kinase enzymatic assay, mobility shift on LabChip system (AC50)
Assay type: biochemical
run_conditions: mean AC50; 5 μM ATP; 1 μM Profiler Pro FL-Peptide 16 substrate
Express the result in µM but write the number alone.

*Q* I have this compound here, N#C/C(C(=O)OCC1CCCCC1)=C1/Nc2ccc(-c3ccc(F)cc3)cc2N=C1N1CCNCC1 , and I need its recorded AC50.
*A* 0.074

*Q* Request the reported AC50 associated with CCC(CC)COC(=O)C(C#N)c1nc2ccccc2nc1N1CCNC(=O)C1 (stereo not shown)
*A* 1.74

*Q* Which value of AC50 has been reported for N#C/C(C(=O)CCC1CCCCC1)=C1/Nc2ccccc2N=C1N1CCNCC1 in the records?
*A* 3.15

*Q* Which AC50 is reported for this compound? CCC(CC)COC(=O)C(C#N)c1nc2ccccc2nc1N1CCC(CN)CC1 (stereo not shown) [drawing 124]
*A* 2.6

---

target_under_test: GST-tagged full-length human CK1α (Homo sapiens (Human), UniProt P48729)
measurement_protocol: Kinase enzymatic assay, mobility shift on LabChip system (AC50)
Format: biochemical
run_conditions: mean AC50; 5 μM ATP; 1 μM Profiler Pro FL-Peptide 16 substrate
Group membership follows AC50 per the scheme low band: < 0.3 µM; middle band: ≥ 0.3 µM and < 1 µM; high band: ≥ 1 µM

*Q* Entry N#CC(C(=O)OCC1CCCC1)c1nc2ccccc2nc1N1CCNCC1 (stereo not shown) belongs to which category?
*A* low band

*Q* Place this compound in its band: N#CC(C(=O)OCc1cccc(N)c1)c1nc2ccccc2nc1N1CCNCC1 (stereo not shown) [drawing 141]
*A* high band

*Q* Which band does CCC(CC)COC(=O)C(C#N)c1nc2ccccc2nc1N1CCNC(CC)C1 (stereo not shown) fall in?
*A* middle band

*Q* State the band of N#CC(C(=O)OCc1ccccc1)c1nc2ccccc2nc1N1CCC(N)CC1 (stereo not shown) [drawing 131]
*A* high band

*Q* Into which bin does this compound go? CCC(CC)COC(=O)C(C#N)c1nc2ccccc2nc1N1CCN[C@H](C)C1 (stereo partly shown)
*A* middle band

*Q* // bin(item) where item = N#C/C(C(=O)OCC1CCCCC1)=C1/Nc2ccccc2C=C1N1CCNCC1
*A* high band

*Q* Which bin should I file CN1CCN(c2nc3ccccc3nc2C(C#N)C(=O)OCC2CCCCC2)CC1 (stereo not shown) under?
*A* low band

*Q* Entry N#C/C(C(=O)OCC1CCCCC1)=C1/NC=NC=C1N1CCNCC1 belongs to which category?
*A* middle band

*Q* Class (by measured AC50) for CCC(CC)COC(=O)C(C#N)c1nc2ccccc2nc1N1CCNC(C(C)C)C1 (stereo not shown)
*A* high band

*Q* Please classify: CC(C)(C)COC(=O)C(C#N)c1nc2ccccc2nc1N1CCNCC1 (stereo not shown) [drawing 115]
*A* low band
